assay: RAM pathway blockade in budding yeast – dse1pr::URA3 reporter, 5-FOA selection, pilot screen (AID 869);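 further: 0% = DMSO wells with no growth and 100% = 10 µM 1-NA-PP1 with full growth; RAM network block rescues cells from 5-FOA so hits raise OD615 growth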; conditions: S. cerevisiae dse1pr::URA3 5-FOA growth, OD615, 2 d; at 10 µM; hits give high values; strain carries analog-sensitive mutant Cbk1 kinase
Listing of entries alongside the reported inhibition.
Record the value in %, omitting the unit from your answer.

Some solved entries appear below for comparison.
## Input Sample O=C(NCc1ccco1)C1CCN(c2ccc(N3CCOCC3)nn2)CC1 — what was its inhibition?
## Output 0.935

## Input So what's the measured inhibition for this one? O=C1CC(c2ccccc2)CC(O)=C1C=NCCN1CCOCC1 (stereo not drawn)
## Output 1.16

## Input So what does the record say about inhibition for CC1CN(Cc2nc3c(c(=O)n(C)c(=O)n3C)n2Cc2cccc(Cl)c2)CC(C)O1 (stereo not drawn) ?
## Output 0.74

Next:
## Input Return reported inhibition; argument: CCOC(=O)Cc1nnc(NC(=O)C(CC)Sc2nc(C)cc(=O)[nH]2)s1 (stereo not drawn)
## Output 2.96

## Input Tell me the measured inhibition of Cc1ccccc1-c1nnc(-c2ccc(Cl)cc2)o1 , please.
## Output 4.19

## Input What value of inhibition has been reported for the following compound? Cn1c(=O)c2c(nc3sccn32)n(C)c1=O
## Output 1.48

## Input What value of inhibition has been reported for the following compound? O=C(NCc1ccccc1)C1CCN(S(=O)(=O)c2cccc3cccnc23)CC1
## Output 1.52

====

test: RAM pathway blockade in budding yeast – dse1pr::URA3 reporter, 5-FOA selection, pilot screen (AID 869);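 further: 0% = DMSO wells with no growth and 100% = 10 µM 1-NA-PP1 with full growth; RAM network block rescues cells from 5-FOA so hits raise OD615 growth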; conditions: S. cerevisiae dse1pr::URA3 5-FOA growth, OD615, 2 d; at 10 µM; hits give high values; strain carries analog-sensitive mutant Cbk1 kinase
Each entry below lists one item and its recorded inhibition value.
Numeric answer only, unit % assumed.

Please review the following examples before continuing.
## Input Given the entry CCN1C(=C2C(=O)c3ccccc3C2=O)C=Cc2ccccc21 , report its measured inhibition.
## Output 1.86

## Input Dear colleague, I am looking for the recorded inhibition of the following compound: COc1ccc(C2CC(c3cccs3)n3nc(N)nc3N2)cc1 (stereo not given)
## Output 0.275

## Input # get_value(readout='inhibition', item= O=C1NCCCC1C(=O)NCCNC(=O)C(F)(F)F (stereo not given) )
## Output 0.3

## Input I am curious: what inhibition value has been reported for CCN(CC)C1CCCCC1NS(=O)(=O)c1ccc(Cl)cc1 (stereo not given) ?
## Output 1.03

## Input Quick one: inhibition for O=C(CSc1ccc2nnc(-c3cccnc3)n2n1)N1CCc2ccccc21 ?
## Output 0.845

## Input Endpoint output: inhibition of O=C(c1ccco1)c1nnn(Cc2ccccc2)c1-c1ccccc1 . Value?
## Output 2.21

## Input Return reported inhibition; argument: CCCN(CCC)C(=O)CCS(=O)(=O)c1cccc2nsnc12
## Output 1.15

## Input What inhibition value was documented for this compound, Cc1c(NC(=O)c2ccc(CN3CCc4ccccc4C3)cc2)c(=O)n(-c2ccccc2)n1C ?
## Output 0.845

## Input Entry COc1ccc(N(CC(=O)Nc2nc3ccc(C)cc3s2)S(=O)(=O)c2c(C)nn(C)c2C)cc1 : reported inhibition = ?
## Output 1.33

## Input For the compound COc1cccc(C2NC(=O)NC(C)=C2C(=O)Nc2ccc(C)cc2)c1 (stereo not given) , what inhibition is on record?
## Output 0.285

---
## Input Given the entry Cc1ccc(C(=O)OCC(=O)Nc2ccc3c(c2)OCO3)o1 , report its measured inhibition.
## Output 0.95

## Input State the recorded inhibition for this entry: Cn1c2c(c(=O)n(C)c1=O)C1c3ccccc3OCC1C(C)(C)O2 (stereo not given)
## Output -0.05

Hello, the source for this data is PubChem BioAssay, in case you need it.
